%Inh for assorted compounds
system: ICK; details: concentration: 1 μM, replicates: in singlicate; n = 1;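 further: KINOMEscan kinase panel screen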

A selection of reference data follows.
1) O=C(O)C(F)(F)F.O=C(O)C(F)(F)F.O=c1[nH]ccc2nc(N[C@@H]3CCCNC3)nc(Nc3ccc(S(=O)(=O)N4CCOCC4)cc3)c12	88%
2) COc1ccc(Nc2nccc(N3CCC(NC(=O)Nc4cccc(OC)c4)C3)n2)cc1 (stereo not drawn)	0%
3) COC(=O)Nc1nc2cc(Oc3ccc(NC(=O)Nc4cc(C(F)(F)F)ccc4F)cn3)ccc2[nH]1.Cl.Cl	0%
4) CCS(=O)(=O)c1ccc(OC)c(Nc2nccc(-c3c(-c4cccc(NC(=O)c5c(F)cccc5F)c4)nn4ncccc34)n2)c1	21%
5) Cc1ccc(C(=O)Nc2ccc(Nc3ccnc4cc(-c5nccs5)ccc34)cc2O)cc1.Cl	28%

Now look at this one.
What %Inh value was documented for this compound, c1ccc(Oc2ccc(Nc3ccnc4cc(-c5ccc(CNCCN6CCOCC6)o5)ccc34)cc2)nc1 ? 0%

----------
%Inh for assorted compounds
tested on: CDK2; settings: concentration: 1 μM, replicates: in singlicate; n = 1

1. O=C(Nc1cccc(-c2nn3ccccc3c2-c2ccnc(Nc3cccc(C(F)(F)F)c3)n2)c1)c1c(F)cccc1F	0%

What %Inh value was documented for this compound, Nc1ncc(-c2ccc3nccc(-c4ccncc4)c3c2)cc1S(=O)(=O)N1CCOCC1 ? 1%

What %Inh value was documented for this compound, Cc1ccc(C(=O)N2CC[C@@H](O)C2)cc1-n1c(C)cc(OCc2ccc(F)cc2F)c(Br)c1=O ? 0%

What %Inh value was documented for this compound, CCn1c(-c2nonc2N)nc2c(C#CC(C)(C)O)ncc(OCCCCN)c21.O=C(O)C(F)(F)F.O=C(O)C(F)(F)F ? 3%

----------
system: JAK2(JH1domain-catalytic); details: concentration: 1 μM, replicates: in singlicate; n = 1
Kindly return yes (1) if reported %Inh is no lower than 50%; return no (0) if it is lower.

1. COc1cc(Nc2ncc3c(C)nc(-c4cc5ccccc5[nH]4)n3n2)cc(OC)c1OC	yes (1)
2. Cc1ccc(F)c(C(=O)Nc2cccc(-c3nn4ccccc4c3-c3ccnc(Nc4cccc(F)c4)n3)c2)c1F	no (0)
3. Cl.Cl.NCC(NCc1ccc(-c2ccnc3[nH]ccc23)s1)c1ccccc1 (centres unmarked)	yes (1)

hey, is %Inh for this one >= 50%? CCn1c(-c2nonc2N)nc2c(C#CC(C)(C)O)ncc(OCCCCN)c21.O=C(O)C(F)(F)F.O=C(O)C(F)(F)F yes (1)

hey, is %Inh for this one >= 50%? CNC(=O)c1ccccc1Nc1nc(Nc2ccc(N3CCOCC3)cc2)ncc1Cl.Cl yes (1)

hey, is %Inh for this one >= 50%? COc1cccc(C(=O)Nc2cccc(Oc3ccc4nc(NC(=O)C5CC5)cn4n3)c2)c1 no (0)

hey, is %Inh for this one >= 50%? COc1cc(Nc2nccc(N3CCC(NC(=O)c4cc5ccccc5s4)C3)n2)cc(OC)c1OC (centres unmarked) yes (1)

hey, is %Inh for this one >= 50%? CCn1c(-c2nonc2N)nc2c(C#CC(C)(C)O)nc(OC[C@H](N)c3ccccc3)cc21 no (0)

hey, is %Inh for this one >= 50%? COc1cc(Nc2nccc(N3CCC(NC(=O)Nc4cccc(C(C)=O)c4)C3)n2)cc(OC)c1OC (centres unmarked) yes (1)

hey, is %Inh for this one >= 50%? O=C(O)C(F)(F)F.O=C(O)C(F)(F)F.O=c1[nH]ccc2nc(N[C@@H]3CCCNC3)nc(Nc3ccc(S(=O)(=O)N4CCOCC4)cc3)c12 yes (1)

hey, is %Inh for this one >= 50%? O=C(Nc1n[nH]c2nc(-c3ccc(O)cc3)ccc12)C1CC1 yes (1)

hey, is %Inh for this one >= 50%? Nc1ncc(-c2cccnc2)c2scc(-c3ccc4c(c3)CCN4C(=O)Cc3ccccc3)c12 no (0)
